System: U2OS
Test: Multiplex assay against U2OS
Format: toxicity, cell-based
Conditions: human, 12 h, 1 µM, compound concentration 1 uM, replicate 1
Property Measured: Population Hoechst High Intensity Objects (%)

| Cpd Smiles | Readout Unit | Assay Result |
| --- | --- | --- |
| CCn1c(=O)c(-c2ccc(-c3cncs3)cc2Cl)cc2cnc(Nc3ccc(N4CCN(C)CC4)cc3)nc21 | % | 7 |
| CNc1cc(Oc2cc(C(=O)Nc3cc(N4CCN(C)CC4)cc(C(F)(F)F)c3)ccc2C)ncn1 | % | 11 |
| CN1CCN(C(=O)C(C)(C)c2ccc(C(=O)Nc3cn4cc(-c5cc(C(C)(C)C)cc(C(C)(C)C)c5)ccc4n3)cc2)CC1 | % | 8 |
| COc1cccc2cc(-c3nc([C@H]4CC[C@H](C(=O)O)CC4)n4ncnc(N)c34)[nH]c12 | % | 1 |
| CCOc1cc(C(=O)N2CCC(N3CCN(C)CC3)CC2)ccc1Nc1ncc2c(n1)N(C1CCCC1)c1ccccc1C(=O)N2C | % | 6 |
| CCNc1cc(N[C@H]2CC[C@H](O)CC2)nc(Nc2ccc3c(ccn3Cc3ccccc3)c2)n1 | % | 1 |
| CN([C@@H](Cc1ccc(OS(=O)(=O)c2cccc3cnccc23)cc1)C(=O)N1CCN(c2ccccc2)CC1)S(=O)(=O)c1cccc2cnccc12 | % | 1 |

---

Tested on: U2OS
Experiment: Incucyte cell viability with U2OS; further: filed as whole numbers so only -1 and 0 and 1 occur
Assay type: toxicity, cell-based
Conditions: human, 12 h, 10 µM, compound concentration 10 uM, replicate number 2, timepoint 12 hours
Items are presented alongside their recorded Growth Rate.
Property Measured: Growth Rate

| Molecule | Assay Result |
| --- | --- |
| O=C(NS(=O)(=O)c1ccc(NCC2CCOCC2)c([N+](=O)[O-])c1)c1ccc(N2CCN(Cc3ccc(C(F)(F)F)cc3-c3ccc(Cl)cc3)CC2)cc1Oc1cnc2[nH]ccc2c1 [A-1210227] | 0 |
| CC(=O)C1=C(C)N(c2cccc(C(F)(F)F)c2)C(=O)N[C@@H]1c1ccc(C#N)nc1 [BAY-678] | 1 |
| CN(C)C(=O)c1cc2cnc(Nc3ccc(N4CCNCC4)cn3)nc2n1C1CCCC1 [RIBOCICLIB] | 1 |
| Cc1nc(-c2ccc(C(F)(F)F)cc2)sc1COc1ccc([C@H](CC(=O)O)c2ccon2)cc1 | 1 |
| O=C1N/C(=N/c2ccccc2F)S/C1=C\c1ccc(C(=O)O)cc1 | 0 |

---

System: Fibroblast
Test: Incucyte cell viability with human fibroblast; further: filed as whole numbers so only -1 and 0 and 1 occur
Format: toxicity, cell-based
Details: 18 h, 10 µM, compound concentration 10 uM, replicate number 1, timepoint 18 hours
Property Measured: Growth Rate

| Cpd Smiles | Target Or System | Property Measured | Assay Result |
| --- | --- | --- | --- |
| Cc1c(NC(=O)c2cc(C(N)=O)nc3cc(F)ccc23)c(C(F)(F)F)nn1Cc1ccc(C#N)cc1 | Fibroblast | Growth Rate | 0 |
| C[C@H]1Oc2cc(cnc2N)-c2c(nn(C)c2C#N)CN(C)C(=O)c2ccc(F)cc21 | Fibroblast | Growth Rate | 0 |
| CC[C@@H]1CN2C(=O)N(C)c3nc(-c4ccccc4)[nH]c3C2=N1.Cl | Fibroblast | Growth Rate | 1 |
| C=CC(=O)Nc1ccc2[nH]c(=O)n(C3CCN(C(=O)c4ccc(-c5nc6cc[nH]c(=O)c6cc5-c5ccccc5)cc4)CC3)c2c1 | Fibroblast | Growth Rate | 1 |
| O=C(Nc1ccc(-c2ccnc(Nc3ccc(N4CCOCC4)cc3)n2)cc1)[C@@H]1CCCN1 | Fibroblast | Growth Rate | 1 |
| CCNc1cc(N[C@H]2CC[C@H](O)CC2)nc(Nc2ccc3c(ccn3Cc3ccccc3)c2)n1 | Fibroblast | Growth Rate | 0 |
| Cc1cc(C)c(S(=O)(=O)N(Cc2ccc(-c3cccc(S(C)(=O)=O)c3)cc2)Cc2ccc(C(F)(F)F)o2)c(C)c1 | Fibroblast | Growth Rate | 0 |
| O=C1NC(=O)C(c2cnc3ccccn23)=C1c1cn2c3c(cc(F)cc13)CN(C(=O)N1CCCCC1)CC2 | Fibroblast | Growth Rate | 0 |
| CCCCN(CCCC)C(=O)CN1C[C@H](c2cc(OC)c3c(c2)OCO3)[C@@H](C(=O)O)[C@@H]1CC(C)(C)CCC.Cc1ccc(S(=O)(=O)O)cc1 | Fibroblast | Growth Rate | 1 |
| CCC[C@H](Oc1cc(C)c(-n2cc(C(F)(F)F)cn2)c(C)c1)c1ccc(C(=O)NCCC(=O)O)cc1 | Fibroblast | Growth Rate | 0 |
| Cc1nnc2c3ccccc3c(N[C@@H](C)[C@H](c3ccccc3)N(C)C)nn12 | Fibroblast | Growth Rate | 1 |
| COc1cc(-c2cn(C)c(=O)c3cnccc23)c(OC)cc1CN(C)C | Fibroblast | Growth Rate | 0 |
| COc1cccc2cc(-c3nc([C@H]4CC[C@H](C(=O)O)CC4)n4ncnc(N)c34)[nH]c12 | Fibroblast | Growth Rate | 0 |
| Cc1ccc(-c2cnc([C@@]3(O)CC[C@H](C(=O)O)C(C)(C)C3)s2)cc1Nc1cccc(C(F)(F)F)n1 | Fibroblast | Growth Rate | 0 |
| O=c1ccn([C@@H]2O[C@H](COP(=O)([O-])OP(=O)([O-])O)[C@@H](O)[C@H]2O)c(=O)[nH]1.[Na+].[Na+] | Fibroblast | Growth Rate | 1 |
| CCOc1cc(C(=O)N2CCC(N3CCN(C)CC3)CC2)ccc1Nc1ncc2c(n1)N(C1CCCC1)c1ccccc1C(=O)N2C | Fibroblast | Growth Rate | 0 |
